Molecular target: EGLN2
Test: cell-based or functional assay
Where no end group is shown, it is not given here.
OBSERVABLE: Activity (%)*
Response body: numeric value in %, unit text excluded.

Some binders with recorded Activity (%)*:
>>> df
                                     binder  unit_name  readout_number
0  DTDLDTEATAPYIPADDDFQ (not fully specified; printed as DTDLDTEATApYIPADDDFQ) [DTDLDTEATApYIPADDDFQ]          %            24.8
1  DTDLDWEALAPYIPADDDFQ (not fully specified; printed as DTDLDWEALApYIPADDDFQ) [DTDLDWEALApYIPADDDFQ]          %             138

Input: What does the data say about its Activity (%)*? Entry: DTDLDTEAVAPYIPADDDFQ (not fully specified; printed as DTDLDTEAVApYIPADDDFQ) [DTDLDTEAVApYIPADDDFQ]
Output: 19

Origin of measurements: patent US20080113383A1
